test system: barnyardgrass (Echinochloa crus-galli); assay: Test A preemergence, visual injury rating 0-100 (0 no effect, 100 complete control); assay type: in vivo; settings: 500 g ai/ha
measurement-label: Barnyardgrass plant response rating (0 to 100 scale)

// Barnyardgrass plant response rating (0 to 100 scale) lookup, key: CC1=[N+]([O-])C(C(=O)Nc2cccc(F)c2F)C(c2ccc(C)c(Br)c2)C1 (racemic) [Compound 71]
90

// Barnyardgrass plant response rating (0 to 100 scale) lookup, key: CC1=[N+]([O-])[C@H](C(=O)Nc2cccc(F)c2F)[C@@H](c2ccc(C(F)F)cc2)C1 (relative stereo) [Compound 93]
90

// Barnyardgrass plant response rating (0 to 100 scale) lookup, key: CC1=[N+]([O-])C(C(=O)Nc2cccc(F)c2F)C(c2cccc(Cl)c2C)C1 (racemic) [Compound 117]
90

// Barnyardgrass plant response rating (0 to 100 scale) lookup, key: CC1=[N+]([O-])C(C(=O)Nc2cccc(F)c2F)C(c2ccc(Cl)c(C(F)(F)F)c2)C1 (racemic) [Compound 104]
90

// Barnyardgrass plant response rating (0 to 100 scale) lookup, key: CC1=[N+]([O-])C(C(=O)Nc2cccc(F)c2F)C(c2ccc(F)c(C(F)(F)F)c2)C1 (racemic) [Compound 64]
90

// Barnyardgrass plant response rating (0 to 100 scale) lookup, key: CC1=[N+]([O-])C(C(=O)Nc2cccc(F)c2F)C(c2cc(C)cc(CF)c2)C1 (racemic) [Compound 108]
100

// Barnyardgrass plant response rating (0 to 100 scale) lookup, key: CC1=[N+]([O-])C(C(=O)Nc2cccc(F)c2F)C(c2cccc(C3OCCO3)c2)C1 (racemic) [Compound 105]
90

// Barnyardgrass plant response rating (0 to 100 scale) lookup, key: CC(C)C1=[N+]([O-])C(C(=O)Nc2cccc(F)c2F)C(c2ccc(C(F)(F)F)cc2)C1 (racemic) [Compound 122]
0

// Barnyardgrass plant response rating (0 to 100 scale) lookup, key: CC1=[N+]([O-])C(C(=O)Nc2cccc(F)c2F)C(c2cc(C)c(F)c(C)c2)C1 (racemic) [Compound 111]
90

----------
test system: ragweed (common ragweed, Ambrosia elatior); experiment: Test A postemergence, visual injury rating 0-100; format: in vivo; conditions: 125 g ai/ha, 0 to 100 scale
I'd be grateful if you could share measured Ragweed plant response rating for these entries.
Reply: number alone, nothing else.

// Ragweed plant response rating lookup, key: CC1=[N+]([O-])C(C(=O)Nc2cccc(F)c2F)C(c2cccc(Br)c2)C1 (racemic)
0

// Ragweed plant response rating lookup, key: CC1=[N+]([O-])C(C(=O)Nc2cccc(F)c2F)C(c2ccc(Cl)c(F)c2)C1 (racemic)
30

// Ragweed plant response rating lookup, key: CC1=[N+]([O-])C(C(=O)Nc2ccccc2C(F)(F)F)C(c2ccc(C(F)(F)F)cc2)C1 (racemic)
0

// Ragweed plant response rating lookup, key: CC1=[N+]([O-])C(C(=O)Nc2cccc(F)c2F)C(c2ccc(OC(F)(F)F)c(F)c2)C1 (racemic)
50

----------
I'd be grateful if you could share measured Foxtail, Giant plant response rating for these entries.
test system: foxtail, giant (giant foxtail, Setaria faberii); assay: Test A preemergence, visual injury rating 0-100; type: in vivo; settings: 31 g ai/ha, 0 to 100 scale (0 no effect, 100 complete control), approx. 10 days

// Foxtail, Giant plant response rating lookup, key: CC1=[N+]([O-])[C@@H](C(=O)Nc2cccc(F)c2F)[C@H](c2cccc(OC(C)C)c2)C1 [Compound 55]
70

// Foxtail, Giant plant response rating lookup, key: CC1=[N+]([O-])C(C(=O)Nc2cccc(F)c2F)C(c2ccc(F)c(Oc3ccc(Cl)nc3)c2)C1 (racemic) [Compound 51]
0

// Foxtail, Giant plant response rating lookup, key: CC1=[N+]([O-])[C@@H](C(=O)Nc2cccc(F)c2F)[C@H](c2cccc(Oc3ncc(F)cc3F)c2)C1 [Compound 70]
20

// Foxtail, Giant plant response rating lookup, key: CC1=[N+]([O-])[C@H](C(=O)Nc2cccc(F)c2F)[C@@H](c2ccc(F)c(OC(F)(F)C(F)F)c2)C1 [Compound 54]
90

// Foxtail, Giant plant response rating lookup, key: CC1=[N+]([O-])C(C(=O)Nc2cccc(F)c2F)C(c2ccc(F)cc2)C1 (racemic) [Compound 9]
70

// Foxtail, Giant plant response rating lookup, key: CC1=[N+]([O-])[C@@H](C(=O)Nc2cccc(F)c2F)[C@H](c2cccc(OC(C)(C)C)c2)C1 [Compound 69]
90

// Foxtail, Giant plant response rating lookup, key: CC1=[N+]([O-])C(C(=O)Nc2cccc(F)c2F)C(c2ccc(F)c(Oc3ccc(F)cn3)c2)C1 (racemic) [Compound 48]
0
